Every entry's value here was drawn from PubChem BioAssay.

Assign slope to each entry below.
assay system: Alpha-2C adrenergic receptor (Homo sapiens)
assay method text: modulators of alpha2C/GIRK thallium flux, primary screen, cell-based, HEK293 alpha2C/GIRK1/2 (AID 624);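 also: slope of fluorescence ratio to pre-addition baseline per second over 15 to 24 s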
particulars: thallium flux BTC fluorescence, at 10 µM, actives lie on both sides
Returns: the value as a bare number; no unit string appended.

Please give the measured slope for this compound: COc1ccc(OC)c(-c2cc(C(=O)NCc3cccs3)no2)c1
0.00616

Please give the measured slope for this compound: COc1ccc(-c2nnn(CC(=O)c3ccc4c(c3)OCCO4)n2)cc1OC
0.00479

Please give the measured slope for this compound: Cc1c(C(=O)OCC(C)(C)CN(C)C)oc2ccccc12
0.00529

Please give the measured slope for this compound: CCOC(=O)c1[nH]c(C)c(C(=O)NCc2ccccn2)c1C
0.00562

----------
assay method text: inhibitors of TNFa-induced NFkB p65 translocation, primary screen, imaging, HUVEC, MLSMR starter and 10KST1 sets (AID 438);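 also: compound added about 3h40 before a 20 min TNFalpha stimulation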
particulars: HUVEC TNFa-induced p65 nuclear translocation; measured here: nuclei count (cytotoxicity indicator), at 2.08 µM
Note to self: values exactly at 400 are Satisfied. So cell count at or above 400 is Satisfied, below is Not satisfied.

Evaluate O=C1c2ccccc2C(=O)N1CNc1ccccc1 : cell count at minimum 400?
Satisfied

Evaluate COC(=O)C1(C)NC(c2cccs2)C2C(=O)N(c3ccccc3F)C(=O)C21 (configuration not stated) : cell count at minimum 400?
Not satisfied

Evaluate O=C(c1ccccc1-c1ccccc1)N1CCN(c2ccccn2)CC1 : cell count at minimum 400?
Not satisfied

Evaluate CCOC(=O)C1=C(N)n2c(s/c(=C\c3ccco3)c2=O)=C(C(=O)OC(C)C)C1c1ccco1 (configuration not stated) : cell count at minimum 400?
Not satisfied

Evaluate CCOC(=O)C1=C(C)NC(=O)C1CC(=O)Nc1ccccc1 (configuration not stated) : cell count at minimum 400?
Not satisfied

Evaluate Cc1ccc(C)c(N2CCN(C(=O)c3cc4ccccn4n3)CC2)c1 : cell count at minimum 400?
Satisfied

Evaluate O=C(CS(=O)(=O)c1cn(Cc2ccc(Cl)cc2)c2ccccc12)N1CCCC1 : cell count at minimum 400?
Satisfied

Evaluate N/C(=N\S(=O)(=O)c1ccc(Cl)s1)c1ccccc1 : cell count at minimum 400?
Satisfied

----------
assay system: Voltage-gated potassium channel subunit beta-2 (Rattus norvegicus)
assay method text: KvBeta enzyme negative modulators, primary screen, biochemical, NADPH fluorescence (AID 622);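 also: slope of raw intensity against log time taken from 70 to 1610 s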
particulars: recombinant KvBeta, 4-cyanobenzaldehyde reduction, at 10 µM, stronger effect = higher value
Active and inactive are the calls of the source.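 The calls were made as follows: active = fluorescence slope higher than the sample average by over 3 SD (cut at about -0.22 in these data, passing the limit was not always enough); inactive = the rest.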
measured parameter: fluorescence slope

Please give the measured fluorescence slope for this compound: CSC1=N/C(=C\C=C\c2cccs2)C(=O)S1
-0.343 (inactive)

Please give the measured fluorescence slope for this compound: O=c1[nH]cnc2c1cnn2Cc1ccccc1
-0.354 (inactive)

Please give the measured fluorescence slope for this compound: CCCNS(=O)(=O)c1ccc(OCC(=O)NCc2ccc3c(c2)OCO3)cc1
-0.368 (inactive)

Please give the measured fluorescence slope for this compound: O=C(CC1Oc2ccc(Cl)cc2NC1=O)NC1CCCCCC1 (centres undefined)
-0.544 (inactive)

----------
assay method text: inhibitors of E-selectin induction by TNFa, primary screen, imaging, HUVEC, immunofluorescence, MLSMR starter and 10KST1 sets (AID 487);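 also: signal is fraction of cell area covered by stained E-selectin grains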
particulars: HUVEC TNFalpha-induced E-selectin immunofluorescence imaging, at 2 µM; stronger effect = higher value
Assign inhibition to each entry below.
Report the value in % with no unit label.

Please give the measured inhibition for this compound: CC(C)COc1ccc(C(=O)NC(CC(C)C)C(=O)O)cc1 (centres undefined)
-19.5

Please give the measured inhibition for this compound: COc1ccc(C(=O)OC(C)CN2CCN(C)CC2)cc1OC (centres undefined)
-35.7

Please give the measured inhibition for this compound: CN1C(=O)C2(c3ccccc31)C1CCCC=C1C(C#N)=C(N)C2(C#N)C#N (centres undefined)
-160

Please give the measured inhibition for this compound: C=CC[N+](C)(C)CCCNC(=O)/C=N/O
-22.3

Please give the measured inhibition for this compound: O=C1C(=O)N(Cc2cccnc2)C(c2ccccn2)/C1=C(/O)c1ccc(Br)cc1 (centres undefined)
-24.5

Please give the measured inhibition for this compound: CCOC(=O)N1CCN(c2c(N3CCc4ccccc4C3)c(=O)c2=O)CC1
-46.4

Please give the measured inhibition for this compound: CCOc1ccc(NC(=O)CSC2=C(C#N)C(c3ccc4c(c3)OCO4)CC(=O)N2)cc1 (centres undefined)
75.3

Please give the measured inhibition for this compound: COc1cccc(-c2nc(N3CCCCC3C)c3ccccc3n2)c1O (centres undefined)
32.7

Please give the measured inhibition for this compound: O=C1c2ccccc2C(=O)N1c1ncccn1
-89

----------
assay system: Alpha-2C adrenergic receptor (Homo sapiens)
assay method text: modulators of alpha2C/GIRK thallium flux, primary screen, cell-based, HEK293 alpha2C/GIRK1/2 (AID 624);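 also: slope of fluorescence ratio to pre-addition baseline per second over 15 to 24 s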
particulars: thallium flux BTC fluorescence, at 10 µM, actives lie on both sides
Note to self: values exactly at 0.004 are y. So slope at or above 0.004 is y, below is n.

Evaluate O=C(NCc1ccc(F)cc1)C1CCN(C(=O)NCc2ccccc2)CC1 : slope at minimum 0.004?
n

Evaluate c1coc(Cn2nnnc2CN2CCN(C3CCCC3)CC2)c1 : slope at minimum 0.004?
y

Evaluate Cc1ccc(C)c(S(=O)(=O)C(C#N)c2nc3ccccc3nc2N2CC(C)OC(C)C2)c1 (stereo unspecified) : slope at minimum 0.004?
n

Evaluate O=C1c2ccccc2C(Nc2ccc(-c3nc4ccccc4[nH]3)cc2)N1Cc1ccco1 (stereo unspecified) : slope at minimum 0.004?
y

Evaluate CCOC(=O)c1c(C)[nH]c(C(=O)CSc2nc3ccccc3o2)c1C : slope at minimum 0.004?
y

----------
assay method text: inhibitors of TNFa-induced NFkB p65 translocation, primary screen, imaging, HUVEC, MLSMR starter and 10KST1 sets (AID 438);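 also: compound added about 3h40 before a 20 min TNFalpha stimulation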
particulars: HUVEC TNFa-induced p65 nuclear translocation; measured here: nuclei count (cytotoxicity indicator), at 2.08 µM
measured parameter: cell count
Returns: the value as a bare number; no unit string appended.

Please give the measured cell count for this molecule: COc1ccc(S(=O)(=O)N2CCN(c3ccc(C)cc3C)CC2)cc1OC
772

Please give the measured cell count for this molecule: Cc1ccc(C(=O)C2=C(O)C(=O)N(CCN3CCOCC3)C2c2ccccn2)o1 (stereo not given)
403

Please give the measured cell count for this molecule: CCCCCCC1/C(=N/O)CCC1C(=O)OC (stereo not given)
656

Please give the measured cell count for this molecule: CC(=O)O[C@H]1CSC[C@H]1NC(=O)c1ccccc1
467

Please give the measured cell count for this molecule: c1ccc(-n2ncc3c(NCC4CCCO4)ncnc32)cc1 (stereo not given)
597

Please give the measured cell count for this molecule: Cc1ccccc1-n1c(=O)/c(=C\c2ccco2)s/c1=C(/C#N)C(=O)Nc1ccccc1
677

Please give the measured cell count for this molecule: CC(=O)Nc1cc(N2C(=O)CCC2=O)ccc1Cl
498

Please give the measured cell count for this molecule: CCOC(=O)C1=C(C)NC(C)=C(C(=O)OCC)C1C(=O)OC1CCOC1=O (stereo not given)
653

Please give the measured cell count for this molecule: N#Cc1c(NCc2ccccc2)ccnc1NCc1cccnc1
720

Please give the measured cell count for this molecule: COc1cccc(CNc2nc3nc(C)c(Cl)c(C)n3n2)c1
343

----------
assay method text: inhibitors of mutant huntingtin aggregation, primary screen, imaging, exon1htt(103Q)mCFP cells, high-content imaging (AID 483);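 also: compound exposure lasted 3 days before fixation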
particulars: exon1htt(103Q)mCFP cell line, aggregate imaging, at 2 µM; stronger effect = higher value
Assign inhibition of aggregation to each entry below.
Report the value in % with no unit label.

Please give the measured inhibition of aggregation for this compound: CCOC(=O)c1[nH]c(C)c(C(=O)NC)c1C
0.2

Please give the measured inhibition of aggregation for this compound: Cc1ccc(-c2nnn(CC(=O)N(Cc3ccco3)C(C(=O)NC(C)(C)C)c3cccs3)n2)o1 (centres undefined)
4.8

Please give the measured inhibition of aggregation for this compound: COc1ccc(NC(=O)N2CCN(c3nc(-c4cccc(OC)c4)cs3)CC2)cc1
8.8

Please give the measured inhibition of aggregation for this compound: O=C1c2ccccc2C(=O)N1CNc1ccccc1
-3.7

Please give the measured inhibition of aggregation for this compound: CCOC(=O)c1ccc(NC(=O)Nc2ccn(C)n2)cc1
11.9

Please give the measured inhibition of aggregation for this compound: CC(C)(C)n1ncc2c(=O)n(CC(=O)NCc3ccc(F)cc3)cnc21
14.9

Please give the measured inhibition of aggregation for this compound: Fc1ccc(-n2c(Cc3ccccc3)nnc2SCc2nc(-c3cccs3)no2)cc1
0.1

Please give the measured inhibition of aggregation for this compound: Cc1cc(Cl)ccc1OCCCC(=O)NO
-15

Please give the measured inhibition of aggregation for this compound: O=C1CC(c2ccc(F)c(Br)c2)C2=C(CCCC2=O)N1 (centres undefined)
-9.9

Please give the measured inhibition of aggregation for this compound: O=C(COC(=O)C12CC3CC(CC(C3)C1)C2)NCc1ccco1
-6.5

Please give the measured inhibition of aggregation for this compound: CC1CCN(CCCNC(=O)c2coc3nc4ccccc4nc23)CC1
-17.9

Please give the measured inhibition of aggregation for this compound: Clc1ccc(C2Nc3ccccc3-n3cccc32)cc1 (centres undefined)
8.6

Please give the measured inhibition of aggregation for this compound: CCOC(=O)c1ccc(N2C(=O)CC(N3CCN(C/C=C/c4ccccc4)CC3)C2=O)cc1 (centres undefined)
-10.3

Please give the measured inhibition of aggregation for this compound: COC(=O)n1c(=S)oc2cc(Cl)ccc21
-25.1

Please give the measured inhibition of aggregation for this compound: Cc1nc2ccccc2c2oc(C(=O)NCCN3CCCCC3C)cc12 (centres undefined)
15.4

Please give the measured inhibition of aggregation for this compound: O=C(Nc1ccccc1C(F)(F)F)c1cc(S(=O)(=O)N2CCOCC2)ccc1F
12.8

Please give the measured inhibition of aggregation for this compound: C/C=C/Cn1c(Br)nc2c1c(=O)[nH]c(=O)n2C
-10.8

Please give the measured inhibition of aggregation for this compound: COCCn1c(SCC(=O)N2CCc3ccccc32)nc2c(c1=O)SC(C)C2 (centres undefined)
13

Please give the measured inhibition of aggregation for this compound: O=C(Nc1cccc2ccccc12)c1cnccn1
5.1

Please give the measured inhibition of aggregation for this compound: Cc1ccc(S(=O)(=O)Cc2ccc(C(=O)N3CCN(Cc4ccccc4)CC3)o2)cc1
-10.9

Please give the measured inhibition of aggregation for this compound: Cc1ccc(OCC(O)CN2C(=O)NC(C)(C)C2=O)cc1C (centres undefined)
-21.4

Please give the measured inhibition of aggregation for this compound: COC(=O)C1(C(F)(F)F)N=C2Sc3ccccc3N2C(N2CCOCC2)=N1 (centres undefined)
8.1

Please give the measured inhibition of aggregation for this compound: CN(C)c1oc(-c2ccccc2F)nc1C#N
10.1

Please give the measured inhibition of aggregation for this compound: CN(CCc1ccccn1)C(=O)CCNC(=O)Cn1cnc2ccccc2c1=O
-4.7

Please give the measured inhibition of aggregation for this compound: O=C(CSc1nc(N2CCCCC2)nc(N2CCCCC2)n1)Nc1nccs1
5.5

Please give the measured inhibition of aggregation for this compound: CCN(c1ccc2c(c1)OCO2)S(=O)(=O)c1cc(Br)cc2c1N(C(=O)C1CC1)CC2
1.3

Please give the measured inhibition of aggregation for this compound: CS(=O)(=O)N(CC(=O)NCc1ccncc1)Cc1ccc(Cl)cc1
-13.4

Please give the measured inhibition of aggregation for this compound: CCOc1ccc(NC(=O)C2CC(=O)N(CC)C(=Nc3ccc4c(c3)OCO4)S2)cc1 (centres undefined)
12.9

Please give the measured inhibition of aggregation for this compound: CCOc1ccc(CNc2ccc3c(c2)ncn3C)cc1
-8.8

Please give the measured inhibition of aggregation for this compound: COc1ccc(-c2nc(CSCC(=O)NCc3ccc4c(c3)OCO4)c(C)o2)cc1OC
16.1

Please give the measured inhibition of aggregation for this compound: CCS(=O)(=O)N1CCC(C(=O)NCCc2ccc(C)cc2)CC1
2.7

Please give the measured inhibition of aggregation for this compound: CC(C)CCn1c(=O)c2ccccc2n2c(CN(C)Cc3ccccc3)nnc12
0.2

Please give the measured inhibition of aggregation for this compound: O=C(c1ccccc1Oc1nnnn1-c1ccccc1)N1CCOCC1
-13.9

Please give the measured inhibition of aggregation for this compound: O=C(NCCN1CCOCC1)NC1(C(F)(F)F)Oc2ccc(Cl)cc2O1 (centres undefined)
11

Please give the measured inhibition of aggregation for this compound: Clc1ccc(-n2nnnc2Sc2ncnc3sccc23)cc1
-12.2

Please give the measured inhibition of aggregation for this compound: COc1ccccc1N1CCN(C(=O)C(Cc2ccccc2)NC(=O)C2CCCCC2)CC1 (centres undefined)
11.3

Please give the measured inhibition of aggregation for this compound: CN(C)c1ccnc(NCc2ccccc2)c1C#N
19

Please give the measured inhibition of aggregation for this compound: COCCSc1ccccc1C(=O)Nc1nncs1
-7.4

Please give the measured inhibition of aggregation for this compound: CCOC(=O)c1[nH]c2ccccc2c1NC(=O)C(C)(C)C
-8.7
